The origin of these recorded values is the supplement of paper PMC10567573.

B1: CDC34 (parent)
chain: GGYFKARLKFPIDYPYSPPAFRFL

- Variants of: B1
- experimental protocol: protein stability index of a GFP-peptide fusion (GPS, HEK-293T) (PSI 1-6); higher = more stable;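 note: lentivirally expressed fusions sorted by FACS into six bins by GFP to DsRed ratio, PSI derived from sequencing read proportions per bin multiplied by bin number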
- experimental parameters: c terminus: a fixed tail appended
property label: protein stability index
Give the value as a plain number.

Example results:
>>> numeric_readout("GGYFKARLKFPIDYPYSWPAFRFL")
2.38
>>> numeric_readout("GGYFKARLKFPIDYPYSPPAFRDL")
2.71
>>> numeric_readout("GGYFKARLKFPIDYPYSPPAFRKL")
2.8
>>> numeric_readout("GGYFKARLKFPIDQPYSPPAFRFL")
1.82
>>> numeric_readout("GGYFKARLKFPIDYPYSPFAFRFL")
2.96

Attention now shifts to the item below.
Fill in: protein stability index of GWYFKARLKFPIDYPYSPPAFRFL is ___ 2.23
